Target: Estrogen Receptor Alpha (ERα) (Homo sapiens, UniProt P03372, Y537S)
Sequence (P03372 282-595 Y537S): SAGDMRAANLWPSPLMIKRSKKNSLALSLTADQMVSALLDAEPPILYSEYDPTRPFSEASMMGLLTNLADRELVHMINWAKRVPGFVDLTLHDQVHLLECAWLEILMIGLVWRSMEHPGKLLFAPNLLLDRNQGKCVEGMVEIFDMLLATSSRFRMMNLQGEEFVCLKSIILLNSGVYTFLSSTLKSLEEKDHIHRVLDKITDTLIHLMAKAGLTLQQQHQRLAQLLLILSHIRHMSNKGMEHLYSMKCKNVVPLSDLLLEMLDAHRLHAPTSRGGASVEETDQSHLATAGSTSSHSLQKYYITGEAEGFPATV
Experiment: LanthaScreen TR-FRET competitive binding assay with purified GST-ERα LBD
pIC50: −log10 of the molar value.

- smiles.data: "CCC(=C(c1ccc(/C=C/C(=O)O)cc1)c1ccc(B(O)O)cc1)c1ccccc1"
  tested.on: "Estrogen Receptor Alpha (ERα) (Homo sapiens, UniProt P03372, Y537S)"
  pIC50: 7.53
